experiment: in vivo; design: species or system SD rats; settings: male, SD, rat
Observed Property: bioavailability (%)
API: value field is a number in %; no unit string.

Input line: GET /values?readout=bioavailability&item= CCNC(=O)[C@@H]1CCCN1C(=O)[C@H](CCCNC(=N)N)NC(=O)[C@H](CC(C)C)NC(=O)[C@@H](CC(C)C)NC(=O)[C@H](Cc1ccc(O)cc1)NC(=O)[C@H](CO)NC(=O)[C@H](Cc1c[nH]c2ccccc12)NC(=O)[C@H](Cc1c[nH]cn1)NC(=O)[C@@H]1CCC(=O)N1 [Leuprolide]
Output line: 1.32

---

test: in vivo; settings: male, SD, rat, plasma, 200 μg/kg
Observed Property: bioavailability (%)
API: value field is a number in %; no unit string.

Input line: GET /values?readout=bioavailability&item= CC(C)C[C@H](NC(=O)CNC(=O)[C@H](Cc1ccc(O)cc1)NC(=O)[C@H](CO)NC(=O)[C@H](Cc1c[nH]c2ccccc12)NC(=O)[C@H](Cc1cnc[nH]1)NC(=O)[C@@H]1CCC(=O)N1)C(=O)N[C@@H](CCCNC(=N)N)C(=O)N1CCC[C@H]1C(=O)NCC(N)=O
Output line: 1.58

Each recorded value in this set is attributed to patent US12036197B2.
